target: Human fibrinogen receptor (αIIb β3) (Homo sapiens, UniProt P05106+P08514); construct: Human fibrinogen receptor (αIIb β3) was purified from outdated platelets; assay: Purified IIb/IIIa receptor assay (solid phase receptor assay, biotinylated vitronectin competition); details: inhibition of 50% of the maximum binding of biotinylated vitronectin; 1 nM labeled ligand, 2 hours, room temperature, highest concentration of test compound 1.0×10^-4 M
Where a name gives a salt, the structure may show the parent alone.
parameter: IC50 (µM)

Some entries whose results are on file:
> print(dat)
                                   molecule                            assayed.system  parameter  unit.symbol  numeric.result
1  CCOC(=O)CCc1cccc(CNC(=O)c2cccc(NC(=N)N)c2)c1 [Example 34, trifluoroacetate salt]  Human fibrinogen receptor (αIIb β3) (Homo sapiens, UniProt P05106+P08514)       IC50           µM            66.1
2  CC(CC(=O)O)c1cccc(CNC(=O)c2cccc(NC(N)=NC(N)=O)c2)c1 (racemic) [Example 65, trifluoroacetate salt]  Human fibrinogen receptor (αIIb β3) (Homo sapiens, UniProt P05106+P08514)       IC50           µM            4.01

a. NC(=O)Nc1cccc(C(=O)Nc2cccc(C(CC(=O)O)c3ccccc3)c2)c1 (stereo not shown)
b. N=C(N)Nc1cccc(SCc2cccc(C(CC(=O)O)c3ccccc3)c2)c1 (stereo not shown) [Example 87, Trifluoroacetate Salt]
c. CC(=O)NC(Cc1cccc(CNC(=O)c2cccc(NC(=N)N)c2)c1)C(=O)O (stereo not shown) [Example 45, bis(trifluoroacetate) salt]
d. CC(CC(=O)O)c1cccc(CNC(=O)c2cccc(NC(=N)N)c2)c1 (stereo not shown) [Example 40, trifluoroacetate salt]
e. N=C(N)Nc1cccc(S(=O)(=O)Nc2cccc(C(CC(=O)O)c3ccccc3)c2)c1 (stereo not shown) [Example 1, trifluoroacetate salt]
[in] Sort these molecules on IC50 so the largest reading comes first. Answer by writing out the labels in the requested order.
[out] a, b, d, c, e

----------
biological target: Human fibrinogen receptor (αIIb β3) (Homo sapiens, UniProt P05106+P08514); construct: Human fibrinogen receptor (αIIb β3) was purified from outdated platelets; from tissue; host or cells: outdated human platelets; assay: Purified IIb/IIIa receptor assay (solid phase receptor assay, biotinylated vitronectin competition); details: inhibition of 50% of the maximum binding of biotinylated vitronectin; 1 nM labeled ligand, 2 hours, room temperature, highest concentration of test compound 1.0×10^-4 M
pIC50: −log10 of the molar value. Structures can show the parent of a compound that is named as a salt.
parameter: pIC50

P. CNC(=NC#N)Nc1cccc(C(=O)NCc2cccc(C(CC(=O)O)c3ccccc3)c2)c1 (stereo not shown)
Q. N=C(N)Nc1cccc(/C=C\c2cccc(C(CC(=O)O)c3ccccc3)c2)c1 (stereo not shown) [Example 76, Bis(trifluoroacetate) Salt]
[in] // select label with min value of measured pIC50 from [ P , Q ] Kindly give the label for the entry you pick.
[out] P
(P: 4.87, Q: 5.75)

----------
target: Human fibrinogen receptor (αIIb β3) (Homo sapiens, UniProt P05106+P08514); construct: Human fibrinogen receptor (αIIb β3) was purified from outdated platelets; experiment: Purified IIb/IIIa receptor assay (solid phase receptor assay, biotinylated vitronectin competition); details: inhibition of 50% of the maximum binding of biotinylated vitronectin; 1 nM labeled ligand, 2 hours, room temperature, highest concentration of test compound 1.0×10^-4 M
pIC50: −log10 of the molar value. Structures can show the parent of a compound that is named as a salt.
parameter: pIC50

The examples below pair each entry with its known result.
> print(dat)
                                   compound  numeric.result
1  N=C(N)Nc1cccc(C(=O)NCc2cccc(C(CC(=O)O)c3cc(F)cc(F)c3)c2)c1 (racemic) [Example 60, trifluoroacetate salt]            6.54
2  N=C(N)Nc1cccc(C(=O)NCc2cccc(C(CC(=O)O)c3ccccc3)c2)c1 (stereo not shown) [Example 38, trifluoroacetate salt]            6.44
3  O=C(O)CCc1cccc(OCC(O)c2cccc(NC3=NCCN3)c2)c1 (stereo not shown) [Example 71, trifluoroacetate salt]            5.01
4  CCC(CC(=O)O)c1cccc(CNC(=O)c2cccc(NC(=N)N)c2)c1 (stereo not shown) [Example 42, trifluoroacetate salt]            6.33
5  NC(=O)Nc1cccc(C(=O)NCc2cccc(CCC(=O)O)c2)c1 [Example 29]            4.49

I. N=C(N)Nc1cccc(C(=O)Nc2cccc(C(CC(=O)O)c3ccccc3)c2)c1 (stereo not shown) [Example 2, trifluoroacetate salt]
II. N=C(N)Nc1cccc(/C=C/c2cccc(C(CC(=O)O)c3ccccc3)c2)c1 (stereo not shown) [Example 75, Bis(trifluoroacetate) Salt]
[in] Hi, I'm comparing two records. Which one has the lower pIC50, I or II ? Reply briefly: the label of your chosen item.
[out] II

----------
target: Human vitronectin receptor (αv β3) (Homo sapiens, UniProt P05106+P06756); construct: Human vitronectin receptor(αv β3) was purified from human placenta; from tissue; host or cells: human placenta; assay: Vitronectin adhesion assay (solid phase receptor assay, biotinylated vitronectin competition); format: binding; conditions: inhibition of 50% of the maximum binding of biotinylated vitronectin; 1 nM labeled ligand, 2 hours, room temperature, highest concentration of test compound 1.0×10^-4 M; read-out: AvB3 IC50
Counter-ions that a name gives are not always drawn.
parameter: IC50 (nM)

# example entries with known answers
compound	unit_symbol	IC50
CCOC(=O)CC(c1ccccc1)c1cccc(CNC(=O)c2cccc(NC(=N)N)c2)c1 (centres unmarked) [Example 37, trifluoroacetate salt]	nM	32200
N=C(N)Nc1cccc(S(=O)(=O)Nc2cccc(C(CC(=O)O)c3ccccc3O)c2)c1 (centres unmarked) [Example 102, Trifluoroacetate Salt]	nM	23.2
N=C(N)Nc1cc(C(=O)NCc2cccc(C(CC(=O)O)c3cc(F)cc(F)c3)c2)cc(C(F)(F)F)c1 (racemic) [Example 61, trifluoroacetate salt hydrate]	nM	1.33
N=C(N)Nc1cccc(S(=O)(=O)Nc2cccc(C(CC(=O)O)c3cc(F)cc(F)c3)c2)c1 (centres unmarked) [Example 78, Trifluoroacetate Salt]	nM	2.54

1. NC(=S)Nc1cccc(S(=O)(=O)Nc2cccc(C(CC(=O)O)c3ccccc3)c2)c1 (centres unmarked) [Example 10]
2. CC(CC(=O)O)c1cccc(CNC(=O)c2cccc(Nc3nc4ccccc4[nH]3)c2)c1 (racemic) [Example 69]
3. CCC(CC(=O)O)c1cccc(NS(=O)(=O)c2cccc(NC(N)=NC(N)=O)c2)c1 (centres unmarked) [Example 95, Trifluoroacetate Salt]
4. COc1ccccc1C(CC(=O)O)c1cccc(CNC(=O)c2cccc(NC(=N)N)c2)c1 (racemic) [Example 63, trifluoroacetate salt hydrate]
[in] Parameters: sort_field (IC50), sort_dir (desc). // respond by listing labels in the order requested
[out] 2, 1, 3, 4

P. CCC(CC(=O)O)c1cccc(NS(=O)(=O)c2cccc(NC(=N)N)c2)c1 (centres unmarked) [Example 94, Trifluoroacetate Salt]
Q. N=C(N)Nc1cccc(NC(=O)Nc2cccc(OCC(=O)O)c2)c1 [Example 52, trifluoroacetate salt]
[in] Identify the entry with the larger IC50. Options: P and Q Lab log: write the label of the selected item as the result.
[out] Q

1. N=C(N)Nc1cccc(S(=O)(=O)Nc2cccc(C(CC(=O)O)c3ccccc3)c2)c1 (centres unmarked) [Example 1, trifluoroacetate salt]
2. N=C(N)Nc1cccc(CC(=O)Nc2cccc(CCC(=O)O)c2)c1 [Example 46, trifluoroacetate salt]
[in] Looking at recorded values for IC50, does 1 or 2 come in lower? Identify your selection by its label.
[out] 1
(1: 16.7 nM, 2: 2440 nM)

----------
biological target: Human fibrinogen receptor (αIIb β3) (Homo sapiens, UniProt P05106+P08514); construct: Human fibrinogen receptor (αIIb β3) was purified from outdated platelets; assay: Purified IIb/IIIa receptor assay (solid phase receptor assay, biotinylated vitronectin competition); details: inhibition of 50% of the maximum binding of biotinylated vitronectin; 1 nM labeled ligand, 2 hours, room temperature, highest concentration of test compound 1.0×10^-4 M
pIC50: −log10 of the molar value. Structures can show the parent of a compound that is named as a salt.
parameter: pIC50

Consider the reported pIC50 for these compounds:
> print(dat)
                                   compound  parameter  numeric.result
1  N=C(N)Nc1cccc(S(=O)(=O)Nc2cccc(C(CC(=O)O)c3cc(Cl)cc(Cl)c3)c2)c1 (stereo not shown) [Example 77, Trifluoroacetate Salt]      pIC50            5.24
2  O=C1CC(c2cccc(NS(=O)(=O)c3cccc(NC4=NCCN4)c3)c2)c2ccccc2O1 (stereo not shown) [Example 101, Trifluoroacetate Salt]      pIC50            5.49
3  CC(C)(C)OC(=O)CC(c1ccccc1)c1cccc(NS(=O)(=O)c2cccc(NC(N)=NC#N)c2)c1 (stereo not shown) [Example 15]      pIC50            5.87

I. N=C(N)Nc1cccc(S(=O)(=O)Nc2cccc(C(CC(=O)O)c3ccc(F)cc3)c2)c1 (stereo not shown) [Example 79, Trifluoroacetate Salt]
II. O=C(O)CCc1cccc(CNC(=O)c2cccc(NC(=O)NCc3ccccc3)c2)c1 [Example 31]
[in] Recorded pIC50 values differ for I and II ; which one is higher? Selection: enter the item's label.
[out] I
(I: 6.49, II: 5.27)
